Test system: SGPC
Assay text: Substrate specificity of SGPC with tetrapeptide substrates sAAPXpNA
Format: biochemical, Streptomyces griseus
Conditions used: pH 8.0, 10% DMSO, 24° C.
*1 amine or outer side, *2 acyl side, *3 side chain or, on linkers, in order; H or OH if unused. Where a SMILES comes first, the peptide text is derived from it. The star is where a group is joined. pNA = O=[N+]([O-])c1ccc(N*)cc1; Suc = O=C(CCC(=O)[*:2])[*:1]
Assay readout: Km (mM)
Please give a number only; it is taken to be in mM.

Exercise: Looking for the measured Km of C[C@H](NC(=O)CCC(=O)O)C(=O)N[C@@H](C)C(=O)N1CCC[C@H]1C(=O)N[C@@H](Cc1ccccc1)C(=O)Nc1ccc([N+](=O)[O-])cc1 [sAAPFpNA] (Suc-AAPF-pNA) , can you help?
Solution: 0.29

Exercise: Which Km reading was recorded for the compound C[C@H](NC(=O)CCC(=O)O)C(=O)N[C@@H](C)C(=O)N1CCC[C@H]1C(=O)N[C@@H](CCCNC(=N)N)C(=O)Nc1ccc([N+](=O)[O-])cc1 [sAAPRpNA] (Suc-AAPR-pNA) ?
Solution: 4.17

Exercise: Record request: Km value, item CSCC[C@H](NC(=O)[C@@H]1CCCN1C(=O)[C@H](C)NC(=O)[C@H](C)NC(=O)CCC(=O)O)C(=O)Nc1ccc([N+](=O)[O-])cc1 [sAAPMpNA] (Suc-AAPM-pNA)
Solution: 0.39

Exercise: I have this compound here, C[C@H](NC(=O)CCC(=O)O)C(=O)N[C@@H](C)C(=O)N1CCC[C@H]1C(=O)N[C@@H](Cc1cnc[nH]1)C(=O)Nc1ccc([N+](=O)[O-])cc1 [sAAPHpNA] (Suc-AAPH-pNA) , and I need its recorded Km.
Solution: 1.09

Exercise: Requested field: Km. Item: C[C@H](NC(=O)CCC(=O)O)C(=O)N[C@@H](C)C(=O)N1CCC[C@H]1C(=O)N[C@@H](CCC(N)=O)C(=O)Nc1ccc([N+](=O)[O-])cc1 [sAAPQpNA] (Suc-AAPQ-pNA)
Solution: 14.3

Exercise: Given the compound CC(C)C[C@H](NC(=O)[C@@H]1CCCN1C(=O)[C@H](C)NC(=O)[C@H](C)NC(=O)CCC(=O)O)C(=O)Nc1ccc([N+](=O)[O-])cc1 [sAAPLpNA] (Suc-AAPL-pNA) , what is its reported Km?
Solution: 0.92

Exercise: Give its Km value. Item: C[C@H](NC(=O)CCC(=O)O)C(=O)N[C@@H](C)C(=O)N1CCC[C@H]1C(=O)N[C@H](C(=O)Nc1ccc([N+](=O)[O-])cc1)[C@@H](C)O [sAAPTpNA] (Suc-AAPT-pNA)
Solution: 4.34

Exercise: So what does the record say about Km for C[C@H](NC(=O)CCC(=O)O)C(=O)N[C@@H](C)C(=O)N1CCC[C@H]1C(=O)N[C@@H](CS)C(=O)Nc1ccc([N+](=O)[O-])cc1 [sAAPCpNA] (Suc-AAPC-pNA) ?
Solution: 4.26

Exercise: What measured Km goes with C[C@H](NC(=O)CCC(=O)O)C(=O)N[C@@H](C)C(=O)N1CCC[C@H]1C(=O)N[C@@H](CC(N)=O)C(=O)Nc1ccc([N+](=O)[O-])cc1 [sAAPNpNA] (Suc-AAPN-pNA) ?
Solution: 2.91

Exercise: Need Km of C[C@H](NC(=O)CCC(=O)O)C(=O)N[C@@H](C)C(=O)N1CCC[C@H]1C(=O)N[C@@H](CO)C(=O)Nc1ccc([N+](=O)[O-])cc1 [sAAPSpNA] (Suc-AAPS-pNA) , thanks.
Solution: 3.73
